Test system: Oryza sativa, (L.) Tebonnet
Assay: Rice tolerance to post-transplant applications under flooded paddy conditions (Example 187), ORYSAT (Rice, Tebonnet); for herbicidal effect rating ORYSAT: meaning of each grade not given here
Details: Rate 0.1250 kg/ha, rated three to four weeks after treatment
result_type: herbicidal effect rating ORYSAT
Quick one: just the number, no unit, thanks!

Requested field: herbicidal effect rating ORYSAT. Item: CC(C)Oc1cccc(-c2nsc3ccc(-n4c(=O)cc(C(F)(F)F)n(C)c4=O)cc23)c1 [Example 328] 4.0

Requested field: herbicidal effect rating ORYSAT. Item: Cn1c(C(F)(F)F)cc(=O)n(-c2ccc3snc(C(=O)Oc4ccccc4)c3c2)c1=O [Example 319] 6.0

Requested field: herbicidal effect rating ORYSAT. Item: CC(C#N)c1nsc2ccc(-n3c(=O)cc(C(F)(F)F)n(C)c3=O)cc12 (stereo not shown) [Example 583] 9.0

Requested field: herbicidal effect rating ORYSAT. Item: Cn1c(C(F)(F)F)cc(=O)n(-c2ccc3snc(COCc4cccc([N+](=O)[O-])c4)c3c2)c1=O [Example 588] 3.0

Requested field: herbicidal effect rating ORYSAT. Item: Cn1c(C(F)(F)F)cc(=O)n(-c2ccc3snc(C(N)=O)c3c2)c1=O [Example 322] 5.0

Requested field: herbicidal effect rating ORYSAT. Item: Cn1c(C(F)(F)F)cc(=O)n(-c2ccc3snc(C(C#N)=Cc4ccco4)c3c2)c1=O [Example 594] 2.0

Requested field: herbicidal effect rating ORYSAT. Item: CCOc1cccc(-c2nsc3ccc(-n4c(=O)cc(C(F)(F)F)n(C)c4=O)cc23)c1 [Example 327] 3.5

Requested field: herbicidal effect rating ORYSAT. Item: CCCCCCCOC(=O)c1nsc2ccc(-n3c(=O)cc(C(F)(F)F)n(C)c3=O)cc12 [Example 388] 4.0

Requested field: herbicidal effect rating ORYSAT. Item: C=CCOC(C)c1nsc2ccc(-n3c(=O)cc(C(F)(F)F)n(C)c3=O)cc12 (stereo not shown) [Example 351] 7.0

Requested field: herbicidal effect rating ORYSAT. Item: Cc1cccc(COCc2nsc3ccc(-n4c(=O)cc(C(F)(F)F)n(C)c4=O)cc23)c1 [Example 587] 4.0

Requested field: herbicidal effect rating ORYSAT. Item: Cn1c(C(F)(F)F)cc(=O)n(-c2ccc3snc(C(=O)NCC(=O)O)c3c2)c1=O [Example 579] 3.0

Requested field: herbicidal effect rating ORYSAT. Item: Cn1c(C(F)(F)F)cc(=O)n(-c2ccc3snc(COS(=O)(=O)c4ccccc4)c3c2)c1=O [Example 382] 6.0

Requested field: herbicidal effect rating ORYSAT. Item: Cn1c(C(F)(F)F)cc(=O)n(-c2ccc3snc(COC(=O)Cc4ccccc4)c3c2)c1=O [Example 369] 7.0

Requested field: herbicidal effect rating ORYSAT. Item: Cc1ccc(S(=O)(=O)NC(=O)c2nsc3ccc(-n4c(=O)cc(C(F)(F)F)n(C)c4=O)cc23)cc1 [Example 353] 3.5

Requested field: herbicidal effect rating ORYSAT. Item: Cn1c(C(F)(F)F)cc(=O)n(-c2ccc3snc(-c4ccccc4OCC(=O)NS(=O)(=O)CCl)c3c2)c1=O [Example 344] 5.0

Requested field: herbicidal effect rating ORYSAT. Item: CC(Br)c1nsc2ccc(-n3c(=O)cc(C(F)(F)F)n(C)c3=O)cc12 (stereo not shown) [Example 339] 9.0

###

Tested on: Oryza sativa, (L.) Tebonnet
Assay: Rice tolerance to post-transplant applications under flooded paddy conditions (Example 187), ORYSAT (Rice, Tebonnet)
Conditions: 0.2500 kg/ha, herbicidal effect rating 0-9, three to four weeks after treatment
Would you kindly list ORYSAT for each of these compounds?
Quick one: just the number, no unit, thanks!

Requested field: ORYSAT. Item: `CCOC(=O)c1nsc2cc(F)c(-n3c(=O)cc(C(F)(F)F)n(C)c3=O)cc12` 7.0

Requested field: ORYSAT. Item: `CN(/N=C/c1nsc2ccc(-n3c(=O)cc(C(F)(F)F)n(C)c3=O)cc12)c1ccccc1` 4.0

Requested field: ORYSAT. Item: `Cn1c(C(F)(F)F)cc(=O)n(-c2ccc3snc(C4(C#N)CC4)c3c2)c1=O` 9.0

Requested field: ORYSAT. Item: `Cc1ccc(OCC(=O)N(C)S(C)(=O)=O)c(-c2nsc3ccc(-n4c(=O)cc(C(F)(F)F)n(C)c4=O)cc23)c1` 7.0

###

System: Oryza sativa, (L.) Tebonnet
Assay: Rice tolerance to post-transplant applications under flooded paddy conditions (Example 187), ORYSAT (Rice, Tebonnet); for herbicidal effect rating ORYSAT: meaning of each grade not given here
Conditions: Rate 0.0620 kg/ha, rated three to four weeks after treatment
Would you kindly list herbicidal effect rating ORYSAT for each of these compounds?

Requested field: herbicidal effect rating ORYSAT. Item: `Cc1ccc(OCC(=O)N(C)O)c(-c2nsc3ccc(-n4c(=O)cc(C(F)(F)F)n(C)c4=O)cc23)c1` 3.0

Requested field: herbicidal effect rating ORYSAT. Item: `CCOCN(C(=O)c1nsc2ccc(-n3c(=O)cc(C(F)(F)F)n(C)c3=O)cc12)S(C)(=O)=O` 4.0

Requested field: herbicidal effect rating ORYSAT. Item: `Cc1cccc(COCc2nsc3ccc(-n4c(=O)cc(C(F)(F)F)n(C)c4=O)cc23)c1` 4.0

Requested field: herbicidal effect rating ORYSAT. Item: C=CCOC(C)c1nsc2ccc(-n3c(=O)cc(C(F)(F)F)n(C)c3=O)cc12 (centres unmarked) 7.0

Requested field: herbicidal effect rating ORYSAT. Item: `CC(=O)c1nsc2ccc(-n3c(=O)cc(C(F)(F)F)n(C)c3=O)cc12` 6.0

Requested field: herbicidal effect rating ORYSAT. Item: CC(O)c1nsc2ccc(-n3c(=O)cc(C(F)(F)F)n(C)c3=O)cc12 (centres unmarked) 5.0

Requested field: herbicidal effect rating ORYSAT. Item: CCCCS(=O)(=O)NC(=O)C(C)Oc1ccc(C)cc1-c1nsc2ccc(-n3c(=O)cc(C(F)(F)F)n(C)c3=O)cc12 (centres unmarked) 0.0

Requested field: herbicidal effect rating ORYSAT. Item: `COc1ccc(O)c(-c2nsc3ccc(-n4c(=O)cc(C(F)(F)F)n(C)c4=O)cc23)c1` 0.0

###

Tested on: Echinochloa oryzoides (Ard.) Fritsch.
Test: Preemergence weed control under flooded paddy conditions, ECHORC (Watergrass (Calif.)); note: meaning of each grade not given here
Assay type: in vivo
Settings: Rate 0.0620 kg/ha; preemergence, flooded paddy; rated three to four weeks after treatment
Would you kindly list herbicidal effect rating, ECHORC for each of these compounds?
Quick one: just the number, no unit, thanks!

Requested field: herbicidal effect rating, ECHORC. Item: `Cn1c(C(F)(F)F)cc(=O)n(-c2ccc3snc(C(=O)NS(=O)(=O)c4ccc(Cl)cc4)c3c2)c1=O` 5.0

Requested field: herbicidal effect rating, ECHORC. Item: `Cn1c(C(F)(F)F)cc(=O)n(-c2ccc3snc(C(C#N)=Cc4ccc(O)cc4)c3c2)c1=O` 0.0

Requested field: herbicidal effect rating, ECHORC. Item: `Cn1c(C(F)(F)F)cc(=O)n(-c2ccc3snc(COCc4cccc([N+](=O)[O-])c4)c3c2)c1=O` 7.0

Requested field: herbicidal effect rating, ECHORC. Item: `Cn1c(C(F)(F)F)cc(=O)n(-c2ccc3snc(CSc4ccccc4)c3c2)c1=O` 7.0

###

Tested on: Sagittaria pygmaea, L.
Test: Preemergence weed control under flooded paddy conditions, SAGPY (Arrowhead (Pygmaea)); note: meaning of each grade not given here
Assay type: in vivo
Conditions: Rate 0.0620 kg/ha; preemergence, flooded paddy; rated 3-4 weeks after treatment
Would you kindly list herbicidal effect rating, SAGPY for each of these compounds?
Quick one: just the number, no unit, thanks!

Hi! What's the reported herbicidal effect rating, SAGPY for C=CCOCC(CC)(COCC=C)COC(=O)COc1ccc(C)cc1-c1nsc2ccc(-n3c(=O)cc(C(F)(F)F)n(C)c3=O)cc12 [Example 521] on Sagittaria pygmaea, L.? 0.0

Hi! What's the reported herbicidal effect rating, SAGPY for CC(Oc1ccccc1-c1nsc2ccc(-n3c(=O)cc(C(F)(F)F)n(C)c3=O)cc12)C(=O)N(C)C (stereo not shown) [Example 551] on Sagittaria pygmaea, L.? 0.0

Hi! What's the reported herbicidal effect rating, SAGPY for CCS(=O)(=O)NC(=O)COc1ccccc1-c1nsc2ccc(-n3c(=O)cc(C(F)(F)F)n(C)c3=O)cc12 [Example 558] on Sagittaria pygmaea, L.? 2.0

Hi! What's the reported herbicidal effect rating, SAGPY for C#CC(C)OC(=O)C(C)(C)Oc1ccc(C)cc1-c1nsc2ccc(-n3c(=O)cc(C(F)(F)F)n(C)c3=O)cc12 (stereo not shown) [Example 531] on Sagittaria pygmaea, L.? 0.0

###

Tested on: Oryza sativa, (L.) Tebonnet
Assay: Rice tolerance to post-transplant applications under flooded paddy conditions (Example 187), ORYSAT (Rice, Tebonnet); for herbicidal effect rating ORYSAT: meaning of each grade not given here
Details: Rate 0.0320 kg/ha, rated three to four weeks after treatment
Response field label: string, one of T (herbicidal effect rating ORYSAT strictly below 1) or F.

Regarding Cn1c(C(F)(F)F)cc(=O)n(-c2ccc3snc(C(=O)Oc4ccccc4)c3c2)c1=O [Example 319] , kindly confirm whether its herbicidal effect rating ORYSAT is beneath 1. F

Regarding COc1ccc(OC)c(-c2nsc3ccc(-n4c(=O)cc(C(F)(F)F)n(C)c4=O)cc23)c1 [Example 333] , kindly confirm whether its herbicidal effect rating ORYSAT is beneath 1. F

Regarding Cn1c(C(F)(F)F)cc(=O)n(-c2ccc3snc(CN=C=S)c3c2)c1=O [Example 311] , kindly confirm whether its herbicidal effect rating ORYSAT is beneath 1. T

Regarding CC(c1nsc2ccc(-n3c(=O)cc(C(F)(F)F)n(C)c3=O)cc12)S(C)(=O)=O (centres unmarked) [Example 590] , kindly confirm whether its herbicidal effect rating ORYSAT is beneath 1. F

Regarding Cn1c(C(F)(F)F)cc(=O)n(-c2ccc3snc(C(=O)Nc4cc(C(C)(C)C)on4)c3c2)c1=O [Example 331] , kindly confirm whether its herbicidal effect rating ORYSAT is beneath 1. T

Regarding C=CCOC(C)c1nsc2ccc(-n3c(=O)cc(C(F)(F)F)n(C)c3=O)cc12 (centres unmarked) [Example 351] , kindly confirm whether its herbicidal effect rating ORYSAT is beneath 1. F

Regarding CC/C(C=O)=C\c1nsc2ccc(-n3c(=O)cc(C(F)(F)F)n(C)c3=O)cc12 [Example 567] , kindly confirm whether its herbicidal effect rating ORYSAT is beneath 1. T
